The reported numbers originate from ChEMBL document CHEMBL3286253.

measurement.notes: Volume of distribution at steady state in Sprague-Dawley rat at 10 mg/kg, iv
Assay type: ADME, organism-based
Parameters: dose 10 mg/kg, route intravenous
measurement.parameters: in vivo, read-out: Vdss
readout.kind: Vd
Answer with the figure and its unit, nothing else.

C=C[C@]1(C)C[C@@H](OC(=O)CSc2cncc(CO)c2)[C@]2(C)[C@H](C)CC[C@]3(CCC(=O)[C@H]32)[C@@H](C)[C@@H]1O: 1.56 L/kg

Here's the next entry for you.
Inquiry: So what does the record say about Vd for C=C[C@]1(C)C[C@@H](OC(=O)CSc2cncc(COP(=O)([O-])[O-])c2)[C@]2(C)[C@H](C)CC[C@]3(CCC(=O)[C@H]32)[C@@H](C)[C@@H]1O.[Na+].[Na+] ?
Reply text: 3.26 L/kg
